System: Col2
PROTOCOL_SUMMARY: Cytotoxicity against human Col2 cells after 72 hrs by sulforhodamine B assay
RUN_PARAMETERS: Col2, 72 h, read-out: ED50 (the source's name)

COMPOUND: COC(=O)[C@]1(C)CC[C@]2(C)CC[C@]3(C)[C@H]4CC[C@]5(COC(C)=O)[C@@H](C)C(=O)CC[C@H]5[C@]4(C)CC[C@@]3(C)[C@@H]2C1
EC50: > 20 µg/mL
--
COMPOUND: COC(=O)[C@]1(C)CC[C@]2(C)CC[C@]3(C)[C@H]4CC[C@@]56CO[C@@](O)(CC[C@H]5[C@]4(C)CC[C@@]3(C)[C@@H]2C1)[C@@H]6C [SALASPERMIC ACID METHYL ESTER]
EC50: > 20 µg/mL
--
COMPOUND: C[C@@H]1[C@@]23CC[C@H]4[C@@](C)(CC[C@@]5(C)[C@@H]6C[C@](C)(C(=O)O)CC[C@]6(C)CC[C@]45C)[C@@H]2CC[C@@]1(O)OC3 [SALASPERMIC ACID]
EC50: > 20 µg/mL
